Literature compilation of pKi measurements on 5-hydroxytryptamine receptor 6 (Homo sapiens, UniProt P50406).
Sequence (P50406 whole entry): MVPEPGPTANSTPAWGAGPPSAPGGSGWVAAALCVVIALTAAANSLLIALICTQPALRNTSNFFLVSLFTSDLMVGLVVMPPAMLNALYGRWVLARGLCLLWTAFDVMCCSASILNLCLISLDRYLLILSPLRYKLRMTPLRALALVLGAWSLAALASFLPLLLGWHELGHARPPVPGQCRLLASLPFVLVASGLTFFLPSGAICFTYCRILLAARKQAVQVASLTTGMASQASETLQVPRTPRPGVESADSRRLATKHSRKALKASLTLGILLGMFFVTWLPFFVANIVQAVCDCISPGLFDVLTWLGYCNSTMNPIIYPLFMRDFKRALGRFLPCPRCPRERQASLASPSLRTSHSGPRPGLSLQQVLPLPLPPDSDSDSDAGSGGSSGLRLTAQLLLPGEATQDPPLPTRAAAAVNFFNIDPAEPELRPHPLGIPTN
pKi is defined as minus the log10 of a concentration measured in mol/L.

Some compounds with known pKi results, for comparison:
# compound, pKi
data = [
    ("O=C1N(Cc2ccccc2)C(c2ccccc2)=NC1(Nc1ccccn1)C(F)(F)F (stereo unspecified)", 5.72),
    ("O=S(=O)(c1ccc(F)cc1)c1ccc2c3c(oc2c1)CNCC3", 7.66),
    ("O=C1CC(c2c[nH]c3ccc(F)cc23)C(=O)N1CCCCN1CCC(c2c[nH]c3ccccc23)CC1 (stereo unspecified)", 7.54),
    ("O=C1c2ccccc2S(=O)(=O)N1CCCCCCN1CCN(c2ccccn2)CC1", 5.63),
]

Tested on 5-hydroxytryptamine receptor 6 (Homo sapiens, UniProt P50406), the item O=S(=O)(c1cccc2ccccc12)c1n[nH]c2ccc(NCC3CCNCC3)cc12 showed pKi equal to 8.46

pKi for 5-hydroxytryptamine receptor 6 (Homo sapiens, UniProt P50406) with input Fc1ccc(Sc2ccc3c(c2)N2CCNCC2C3)cc1 (stereo unspecified) equals 6.80

Item: NC(=O)c1ccccc1OCCCN1CCN(c2cccc3c2ccn3Cc2cccc(F)c2)CC1 | System: 5-hydroxytryptamine receptor 6 (Homo sapiens, UniProt P50406) | pKi: 8.00

Value (pKi, 5-hydroxytryptamine receptor 6 (Homo sapiens, UniProt P50406)) for record O=S(=O)(c1ccc2ccccc2c1)n1ccc2ccc(N3CCN4CCCCC4C3)cc21 (stereo unspecified) = 8.52

Assay 5-hydroxytryptamine receptor 6 (Homo sapiens, UniProt P50406), sample COc1ccccc1Cc1nc(N)nc(N2CCN(C)CC2)n1 , pKi read: 6.71

The measured pKi that NC(=O)c1ccccc1OCCCN1CCN(c2cccc3c2ccn3Cc2ccccc2)CC1 showed for 5-hydroxytryptamine receptor 6 (Homo sapiens, UniProt P50406) is 7.62

Simply: CC(Oc1cccc(Cl)c1)c1nc(N)nc(N2CCN(C)CC2)n1 (stereo unspecified) , 5-hydroxytryptamine receptor 6 (Homo sapiens, UniProt P50406), pKi = 6.93

Note to self: pKi of CN1CCN(CCCN2C(=O)c3ccccc3/C=C\c3ccccc32)CC1 with 5-hydroxytryptamine receptor 6 (Homo sapiens, UniProt P50406) was 4.68

COc1cc(OC)c2ccn(S(=O)(=O)c3ccc(N)cc3)c2c1 tested on 5-hydroxytryptamine receptor 6 (Homo sapiens, UniProt P50406) gave pKi: 9.10

Reported 5-hydroxytryptamine receptor 6 (Homo sapiens, UniProt P50406) pKi for item O=S(=O)(c1cccc2ccccc12)n1ccc2ccc(C3CCN4CCCC4C3)cc21 (single isomer, unassigned; less polar) was 9.22

5-hydroxytryptamine receptor 6 (Homo sapiens, UniProt P50406) pKi of CN1CCC(c2cn(-c3ccc(F)cc3)c3ccc(-c4cncnc4)cc23)CC1 is 7.80

The observed pKi for CC1(C)NCCc2c1oc1cc(S(=O)(=O)c3cccc(F)c3)ccc21 when tested with 5-hydroxytryptamine receptor 6 (Homo sapiens, UniProt P50406) stands at 8.54

Tested on 5-hydroxytryptamine receptor 6 (Homo sapiens, UniProt P50406): CNc1nn2cccnc2c1S(=O)(=O)c1cccc(Cl)c1 . Observed pKi: 8.93

====

Assay read-out pKi on 5-hydroxytryptamine receptor 6 (Homo sapiens); records merged from the literature.
# log scale: pKi equals minus log10 of the concentration in mol/L

Consider the worked cases shown below.
# compound-structure, measured-target, pKi
data = [
    ("COc1cc(Cl)c(C)cc1NS(=O)(=O)c1ccc(OC)c(N2CCNCC2)c1", "5-hydroxytryptamine receptor 6 (Homo sapiens)", 8.70),
    ("C[C@H](NCc1ccc(OCCCCCCN2CCN(c3cccc4c3ccn4Cc3cccc(Cl)c3)CC2)cc1)C(N)=O", "5-hydroxytryptamine receptor 6 (Homo sapiens)", 6.47),
    ("Cc1ccc(OCc2nc(N)nc(N3CCN(C)CC3)n2)cc1", "5-hydroxytryptamine receptor 6 (Homo sapiens)", 6.63),
    ("O=S(=O)(c1cccc2ncccc12)N1CCC[C@@H]1CCN1CCC(c2noc3cc(F)ccc23)CC1", "5-hydroxytryptamine receptor 6 (Homo sapiens)", 7.35),
]

Summary line: CN1CCN(c2cn(S(=O)(=O)c3cccc(Cl)c3)c3ccccc23)CC1 , 5-hydroxytryptamine receptor 6 (Homo sapiens), reported pKi = 7.97
